// reported pKd for each item listed
- experimentalTarget: RBM25 PWI domain + flanking basic region WT (Homo sapiens, UniProt P49756 734-843)
- Sequence (P49756 734-843): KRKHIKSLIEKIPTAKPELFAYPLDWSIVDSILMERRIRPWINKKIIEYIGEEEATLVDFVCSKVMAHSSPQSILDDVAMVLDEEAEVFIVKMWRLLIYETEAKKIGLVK
- experimentalProtocol: fluorescence polarization
pKd: −log10 of the molar value.

>>> print(df.to_string())
                                     binder  measuredvalue
0                  AUCGGGCA (ssRNA) [ssRNA]           4.95
1  dsDNA (dsDNA) DNA 1: CCTTACAGCAAA DNA 2: TTTGCTGTAAGG          ~5.17
2              CCTTACAGCAAA (ssDNA) [ssDNA]          ~5.36

Kindly review the next binder as well.
Suppose we examine the binder dsRNA (dsRNA) RNA 1: AUCGGGCA RNA 2: UGCCCGAU ; what pKd value has been reported?
~5.09

The reported measurements were obtained from paper PMC3553564.
